Could you please report measured IC50 for the items listed next?
TARGET SYSTEM: HPK1 (Homo sapiens)
Sequence (Q92918 whole entry): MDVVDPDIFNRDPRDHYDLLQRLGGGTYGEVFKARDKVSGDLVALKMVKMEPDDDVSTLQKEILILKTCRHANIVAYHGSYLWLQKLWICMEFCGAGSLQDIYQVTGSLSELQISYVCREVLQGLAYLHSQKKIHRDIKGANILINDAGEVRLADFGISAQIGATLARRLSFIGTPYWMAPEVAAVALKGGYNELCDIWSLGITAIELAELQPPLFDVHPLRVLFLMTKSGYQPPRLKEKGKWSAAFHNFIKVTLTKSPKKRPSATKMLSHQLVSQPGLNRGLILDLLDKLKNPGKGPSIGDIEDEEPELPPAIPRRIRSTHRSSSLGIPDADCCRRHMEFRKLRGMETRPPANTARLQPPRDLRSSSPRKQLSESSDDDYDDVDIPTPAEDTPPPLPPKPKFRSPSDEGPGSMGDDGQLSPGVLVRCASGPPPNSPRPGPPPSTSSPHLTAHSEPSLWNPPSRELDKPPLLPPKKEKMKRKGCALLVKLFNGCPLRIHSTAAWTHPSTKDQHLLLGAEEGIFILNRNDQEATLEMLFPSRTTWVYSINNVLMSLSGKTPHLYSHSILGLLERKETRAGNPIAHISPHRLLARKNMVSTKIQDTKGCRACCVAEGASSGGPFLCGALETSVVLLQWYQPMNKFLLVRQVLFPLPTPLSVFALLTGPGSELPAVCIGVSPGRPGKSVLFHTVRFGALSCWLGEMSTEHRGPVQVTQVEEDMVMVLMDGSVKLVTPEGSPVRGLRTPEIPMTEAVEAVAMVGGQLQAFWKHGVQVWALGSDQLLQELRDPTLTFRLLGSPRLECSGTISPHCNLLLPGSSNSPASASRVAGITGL
ASSAY PROCEDURE: SLP76 phosphorylation assay (intracellular HPK1 inhibitory activity, p-SLP76 S376 ELISA in Jurkat cells)
EXPERIMENTAL SETUP: p-SLP76 IC50, Jurkat, Clone E6-1 cells; 1 h compound pre-incubation; anti-CD3 beads stimulation 20 min; Phospho-SLP-76 (Ser376) ELISA
Express it in µM; write the number only.

Q) Provide one value: measured IC50 of C[C@@H]1CN(C(=O)N2CCc3cc(-c4cnc5[nH]cc(Cl)c5c4)cc([C@@H]4COCCN4)c3C2)CCO1 [Compound Z502]
A) 0.169

Q) Please report IC50 for the following compound: N#Cc1c[nH]c2ncc(-c3cc4c(c([C@@H]5COCCN5)c3)CN(C(=O)N3CC5CCC(C3)O5)CC4)cc12 [Compound Z515]
A) 0.173

Q) Identify the reported IC50 for the following entry. Cc1c[nH]c2ncc(-c3cc4c(c([C@@H]5COCCN5)c3)CN(C(=O)C3CC5CCC(C3)O5)CC4)cc12 (stereo partly drawn) [Compound Z504]
A) 0.232

Q) Report IC50 for Cc1c[nH]c2ncc(-c3cc4c(c([C@@H]5CCCN5)c3)CN(C(=O)C(C)(C)C)CC4)cc12 [Compound Z126]
A) 0.252

Q) Entry Cc1cc(-c2c[nH]c3ncc(-c4cc5c(c([C@@H]6COCCN6)c4)CN(C(=O)C(C)(C)O)CC5)cc23)c(C)cn1 [Compound Z545] needs its IC50 filled in; supply it.
A) 0.56

Q) Identify the reported IC50 for the following entry. Cc1c[nH]c2ncc(-c3cc4c(c([C@@H]5COCCN5)c3)CN(C(=O)N3CCC(O)C3)CC4)cc12 (stereo partly drawn) [Compound Z558]
A) 0.936

Q) Using the record for CC(C)c1c[nH]c2ncc(-c3cc4c(c([C@@H]5CCCN5)c3)CN(C(=O)C(C)(C)O)CC4)cc12 [Compound Z416] , state its measured IC50.
A) 0.0631

Q) Give the reported IC50 for this compound. CN1C2CCC1CN(C(=O)N1CCc3cc(-c4cnc5[nH]cc(Cl)c5c4)cc([C@@H]4COCCN4)c3C1)C2 [Compound Z470]
A) 0.127

Q) Answer with the recorded IC50 for the compound listed here: Cc1c[nH]c2ncc(-c3cc4c(c([C@@H]5COCCN5)c3)CN(C(=O)N3C[C@H]5C[C@@H]3CO5)CC4)cc12 [Compound Z518]
A) 0.13

Q) Provide only the value of recorded IC50 for COCC(=O)N1CCc2cc(-c3cnc4[nH]cc(Cl)c4c3)cc([C@@H]3COCCN3)c2C1 [Compound Z466]
A) 0.306

Q) Could you please provide reported IC50 for Cc1c[nH]c2ncc(-c3cc4c(c([C@@H]5COCCN5)c3)CN(S(=O)(=O)C3CC3)CC4)cc12 [Compound Z467] ? Thanks!
A) 0.385

Q) Give the reported IC50 for this compound. Cc1c[nH]c2ncc(-c3cc4c(c([C@@H]5COCCN5)c3)CN(C(=O)N3C[C@@H]5CC[C@H]3CO5)CC4)cc12 (single isomer, unassigned) [Compound Z644]
A) 0.0616

Q) Input CCc1c[nH]c2ncc(-c3cc4c(c([C@@H]5COCCN5)c3)CN(C(=O)C(C)(C)O)CC4)cc12 [Compound Z476] , output reported IC50.
A) 0.067

Q) // Input: Cc1c[nH]c2ncc(-c3cc4c(c([C@@H]5COCCN5)c3)CN(C(=O)N3CC5CCC(C3)O5)CC4)cc12 [Compound Z451] . Output its IC50 only.
A) 0.0442

Q) Provide IC50 value for the following compound: Cc1c[nH]c2ncc(-c3cc4c(c([C@@H]5COCCN5)c3)CCN(C(=O)[C@H]3CCOC3)C4)cc12 [Compound Z446]
A) 0.196

Q) Please indicate IC50 recorded for Cc1c[nH]c2ncc(-c3cc4c(c([C@@H]5COCCN5)c3)CN(C(=O)N3C[C@H]5CC[C@@H]3CO5)CC4)cc12 (single isomer, unassigned) [Compound Z643]
A) 0.294

Q) Assign IC50 to the following record: CN1CC2CCC(C1)N2C(=O)N1CCc2cc(-c3cnc4[nH]cc(Cl)c4c3)cc([C@@H]3COCCN3)c2C1 [Compound Z472]
A) 0.216

Q) Specify measured IC50 for CC(C)c1c[nH]c2ncc(-c3cc4c(c([C@@H]5COCCN5)c3)CN(C(=O)C(C)(C)O)CC4)cc12 [Compound Z419] .
A) 0.0742

Q) Indicate the recorded IC50 value for this compound: Cc1c[nH]c2ncc(-c3cc4c(c([C@@H]5CCCN5)c3)CN(C(=O)[C@H](O)c3cccnc3)CC4)cc12 (single isomer, unassigned) [Compound Z287]
A) 0.338

Q) Give IC50 for CCc1c[nH]c2ncc(-c3cc4c(c([C@@H]5COCCN5)c3)CN(C(=O)c3cnc(C)nc3)CC4)cc12 [Compound Z567]
A) 0.125

Q) // fetch IC50 given entry O=C(N1CCc2cc(-c3cnc4[nH]cc(F)c4c3)cc([C@@H]3COCCN3)c2C1)N1CC2CCC(C1)O2 [Compound Z475]
A) 0.117

Q) Give reported IC50 value for Cc1c[nH]c2ncc(-c3cc4c(c([C@@H]5COCCN5)c3)CN(C(=O)N3C[C@H]5C[C@@H]3CO5)CC4)nc12 [Compound Z607]
A) 0.0761

Q) Kindly indicate its recorded IC50. Item: O=C(C1CCOCC1)N1CCc2c(cc(-c3cnc4[nH]cc(Cl)c4c3)cc2[C@@H]2COCCN2)C1 [Compound Z487]
A) 0.153

Q) Write down IC50 measured for item Cc1c[nH]c2ncc(-c3cc4c(c([C@@H]5COCCN5)c3)CN(C(=O)N3CCC(O)CC3)CC4)cc12 [Compound Z556]
A) 0.962

Q) Return reported IC50. Input compound: CCc1c(F)[nH]c2ncc(-c3cc4c(c([C@@H]5COCCN5)c3)CN(C(=O)C(C)(C)O)CC4)cc12 [Compound Z464]
A) 0.193

Q) In one line, give reported IC50 of the entry Cc1cc(CC(=O)N2CCc3c(cc(-c4cnc5[nH]cc(C)c5c4)cc3[C@@H]3CCCN3)C2)ccn1 [Compound Z333] .
A) 0.205

Q) Give the reported IC50 for this compound. O=C(N1CCc2cc(-c3cnc4[nH]cc(F)c4n3)cc([C@@H]3COCCN3)c2C1)N1CC2CCC(C1)O2 [Compound Z522]
A) 0.11
